These data points were gathered from patent US8247211B2.

Test system: Streptococcus sp.
Experiment: In vitro antibacterial evaluation: minimum inhibitory concentration (MIC), broth dilution method
Assay type: cell-based
Settings: broth dilution, inoculum 5×10^5 CFU/mL, 18 hours at 35° C.
Catalogue of molecules with associated MIC Streptococcus pneumoniae (ATCC 6301)
Measured quantity: MIC Streptococcus pneumoniae (ATCC 6301)

INSERT INTO results (molecule, measured_quantity, observed_value) VALUES
  ('CC(c1ccccc1)C1NC(=O)CNC(=O)C(CO)NC(=O)C(C(O)C2CNC(=N)N2C2OC(CO)C(O)C(O)C2O)NC(=O)C(C(O)C2CNC(=N)N2)NC(=O)C(Cc2ccc(OC3OC(CO)C(OC4OC5COC(c6ccc(Oc7ccc(C(C)(C)C)cc7)cc6)OC5C(O)C4O)C(O)C3O)cc2)NC1=O (centres unmarked) [Example 181]', 'MIC Streptococcus pneumoniae (ATCC 6301)', '<0.06 µg/mL'),
  ('CC(c1ccccc1)C1NC(=O)CNC(=O)C(CO)NC(=O)C(C(O)C2CNC(=N)N2C2OC(CO)C(O)C(O)C2O)NC(=O)C(C(O)C2CNC(=N)N2)NC(=O)C(Cc2ccc(OC3OC(CO)C(OC4OC5COC6(OC5C(O)C4O)C(C)CCCC6C)C(O)C3O)cc2)NC1=O (centres unmarked) [Example 206]', 'MIC Streptococcus pneumoniae (ATCC 6301)', '<0.12 µg/mL'),
  ('CC(c1ccccc1)C1NC(=O)CNC(=O)C(CO)NC(=O)C(C(O)C2CNC(=N)N2C2OC(CO)C(O)C(O)C2O)NC(=O)C(C(O)C2CNC(=N)N2)NC(=O)C(Cc2ccc(OC3OC(CO)C(OC4OC5COC(c6ccc(C=Cc7ccccc7)cc6)OC5C(O)C4O)C(O)C3O)cc2)NC1=O (centres unmarked) [Example 172]', 'MIC Streptococcus pneumoniae (ATCC 6301)', '<0.06 µg/mL'),
  ('CC(c1ccccc1)C1NC(=O)CNC(=O)C(CO)NC(=O)C(C(O)C2CNC(=N)N2C2OC(CO)C(O)C(O)C2O)NC(=O)C(C(O)C2CNC(=N)N2)NC(=O)C(Cc2ccc(OC3OC(CO)C(OC4OC5COC(c6ccc(-c7ccsc7)cc6)OC5C(O)C4O)C(O)C3O)cc2)NC1=O (centres unmarked) [Example 164]', 'MIC Streptococcus pneumoniae (ATCC 6301)', '<0.06 µg/mL'),
  ('CC(c1ccccc1)C1NC(=O)CNC(=O)C(CO)NC(=O)C(C(O)C2CNC(=N)N2C2OC(CO)C(O)C(O)C2O)NC(=O)C(C(O)C2CNC(=N)N2)NC(=O)C(Cc2ccc(OC3OC(CO)C(OC4OC5COC(c6cccc(Oc7ccccc7)c6)OC5C(O)C4O)C(O)C3O)cc2)NC1=O (centres unmarked) [Example 170]', 'MIC Streptococcus pneumoniae (ATCC 6301)', '<0.06 µg/mL'),
  ('N=C1NCC(C(O)C2NC(=O)C(CC3CCC(OC4OC(CO)C(OC5OC6COC7(OC6C(O)C5O)C5CC6CC(C5)CC7C6)C(O)C4O)CC3)NC(=O)C(CC3CCCCC3)NC(=O)CNC(=O)C(CO)NC(=O)C(C(O)C3CNC(=N)N3C3OC(CO)C(O)C(O)C3O)NC2=O)N1 (centres unmarked) [Example 223]', 'MIC Streptococcus pneumoniae (ATCC 6301)', '64 µg/mL'),
  ('CC(c1ccccc1)C1NC(=O)CNC(=O)C(CO)NC(=O)C(C(O)C2CNC(=N)N2C2OC(CO)C(O)C(O)C2O)NC(=O)C(C(O)C2CNC(=N)N2)NC(=O)C(Cc2ccc(OC3OC(CO)C(OC4OC5COC(c6ccc(C(=O)c7ccccc7)cc6)OC5C(O)C4O)C(O)C3O)cc2)NC1=O (centres unmarked) [Example 173]', 'MIC Streptococcus pneumoniae (ATCC 6301)', '<0.12 µg/mL'),
  ('CSc1ccc(C2OCC3OC(OC4C(CO)OC(Oc5ccc(CC6NC(=O)C(C(C)c7ccccc7)NC(=O)CNC(=O)C(CO)NC(=O)C(C(O)C7CNC(=N)N7C7OC(CO)C(O)C(O)C7O)NC(=O)C(C(O)C7CNC(=N)N7)NC6=O)cc5)C(O)C4O)C(O)C(O)C3O2)cc1[N+](=O)[O-] (centres unmarked) [Example 168]', 'MIC Streptococcus pneumoniae (ATCC 6301)', '<0.12 µg/mL'),
  ('CC(c1ccccc1)C1NC(=O)CNC(=O)C(CO)NC(=O)C(C(O)C2CNC(=N)N2C2OC(CO)C(O)C(O)C2O)NC(=O)C(C(O)C2CNC(=N)N2)NC(=O)C(Cc2ccc(OC3OC(CO)C(OC4OC5COC(c6ccc(-c7cccs7)cc6)OC5C(O)C4O)C(O)C3O)cc2)NC1=O (centres unmarked) [Example 163]', 'MIC Streptococcus pneumoniae (ATCC 6301)', '<0.5 µg/mL'),
  ('CC(c1ccccc1)C1NC(=O)CNC(=O)C(CO)NC(=O)C(C(O)C2CNC(=N)N2C2OC(CO)C(O)C(O)C2O)NC(=O)C(C(O)C2CNC(=N)N2)NC(=O)C(Cc2ccc(OC3OC(CO)C(OC4OC(COCC=C(c5ccccc5)c5ccccc5)C(O)C(O)C4O)C(O)C3O)cc2)NC1=O (centres unmarked) [Example 241]', 'MIC Streptococcus pneumoniae (ATCC 6301)', '<0.06 µg/mL'),
  ('CC(C)=CCOc1cccc(C2OCC3OC(OC4C(CO)OC(Oc5ccc(CC6NC(=O)C(C(C)c7ccccc7)NC(=O)CNC(=O)C(CO)NC(=O)C(C(O)C7CNC(=N)N7C7OC(CO)C(O)C(O)C7O)NC(=O)C(C(O)C7CNC(=N)N7)NC6=O)cc5)C(O)C4O)C(O)C(O)C3O2)c1 (centres unmarked) [Example 165]', 'MIC Streptococcus pneumoniae (ATCC 6301)', '0.12 µg/mL'),
  ('CC(c1ccccc1)C1NC(=O)CNC(=O)C(CO)NC(=O)C(C(O)C2CNC(=N)N2C2OC(CO)C(O)C(O)C2O)NC(=O)C(C(O)C2CNC(=N)N2)NC(=O)C(Cc2ccc(OC3OC(CO)C(OC4OC5COC6(CCCCC6(C)C)OC5C(O)C4O)C(O)C3O)cc2)NC1=O (centres unmarked) [Example 205]', 'MIC Streptococcus pneumoniae (ATCC 6301)', '<0.12 µg/mL'),
  ('COc1ccc2cc(C3OCC4OC(OC5C(CO)OC(Oc6ccc(CC7NC(=O)C(C(C)c8ccccc8)NC(=O)CNC(=O)C(CO)NC(=O)C(CC8CNC(=N)N8C8OC(CO)C(O)C(O)C8O)NC(=O)C(CC8CNC(=N)N8)NC7=O)cc6)C(O)C5O)C(O)C(O)C4O3)ccc2c1 (centres unmarked) [Example 190]', 'MIC Streptococcus pneumoniae (ATCC 6301)', '8 µg/mL'),
  ('CC(C1CCCCC1)C1NC(=O)CNC(=O)C(CO)NC(=O)C(C(O)C2CNC(=N)N2C2OC(CO)C(O)C(O)C2O)NC(=O)C(C(O)C2CNC(=N)N2)NC(=O)C(Cc2ccc(OC3OC(CO)C(OC4OC5COC6(OC5C(O)C4O)C4CC5CC(C4)CC6C5)C(O)C3O)cc2)NC1=O (centres unmarked) [Example 221]', 'MIC Streptococcus pneumoniae (ATCC 6301)', '<0.12 µg/mL');

====

Tested on: Enterococcus sp.
Test: In vitro antibacterial evaluation: minimum inhibitory concentration (MIC), broth dilution method
Assay type: cell-based
Conditions: strain GC 4554
Catalogue of molecules with associated MIC Enterococcus faecalis (GC 4554)
Measured quantity: MIC Enterococcus faecalis (GC 4554) (µg/mL)

INSERT INTO measurements (molecule, measured_quantity, measurement_unit, observed_value) VALUES
  ('CC(c1ccccc1)C1NC(=O)CNC(=O)C(CO)NC(=O)C(C(O)C2CNC(=N)N2C2OC(CO)C(O)C(O)C2O)NC(=O)C(C(O)C2CNC(=N)N2)NC(=O)C(Cc2ccc(OC3OC(CO)C(OC4OC(COC(=O)C(c5ccccc5)c5ccccc5)C(O)C(O)C4O)C(O)C3O)cc2)NC1=O (stereo not shown) [Example 96c]', 'MIC Enterococcus faecalis (GC 4554)', 'µg/mL', 2),
  ('CCCCCCN=C1NCC(C(O)C2NC(=O)C(C(O)C3CNC(=N)N3)NC(=O)C(Cc3ccc(OC4OC(CO)C(OC5OC6COC7(OC6C(O)C5O)C5CC6CC(C5)CC7C6)C(O)C4O)cc3)NC(=O)C(C(C)c3ccccc3)NC(=O)CNC(=O)C(CO)NC2=O)N1C1OC(CO)C(O)C(O)C1O (stereo not shown) [Example 84]', 'MIC Enterococcus faecalis (GC 4554)', 'µg/mL', 16),
  ('CC(c1ccccc1)C1NC(=O)CNC(=O)C(CO)NC(=O)C(C(O)C2CNC(=N)N2C2OC(CO)C(O)C(O)C2O)NC(=O)C(C(O)C2CNC(=N)N2)NC(=O)C(Cc2ccc(OC3OC(CO)C(OC4OC5COC(c6cccc(Cl)c6)OC5C(O)C4O)C(O)C3O)cc2)NC1=O (stereo not shown) [Example 138]', 'MIC Enterococcus faecalis (GC 4554)', 'µg/mL', 8),
  ('CC(c1ccccc1)C1NC(=O)CNC(=O)C(CO)NC(=O)C(C(O)C2CN(Cc3ccc4ccccc4c3)C(=N)N2C2OC(CO)C(O)C(O)C2O)NC(=O)C(C(O)C2CNC(=N)N2)NC(=O)C(Cc2ccc(OC3OC(CO)C(OC4OC5COC6(OC5C(O)C4O)C4CC5CC(C4)CC6C5)C(O)C3O)cc2)NC1=O (stereo not shown) [Example 78]', 'MIC Enterococcus faecalis (GC 4554)', 'µg/mL', 16);
